target_of_assay: recombinant human GluN1/GluN2A receptor (Homo sapiens, UniProt Q05586+Q12879)
Construct: expressed in transfected cells; host or cells: HEK293, tetracycline-inducible expression
Sequence (Q12879 23-1464, other chains not shown): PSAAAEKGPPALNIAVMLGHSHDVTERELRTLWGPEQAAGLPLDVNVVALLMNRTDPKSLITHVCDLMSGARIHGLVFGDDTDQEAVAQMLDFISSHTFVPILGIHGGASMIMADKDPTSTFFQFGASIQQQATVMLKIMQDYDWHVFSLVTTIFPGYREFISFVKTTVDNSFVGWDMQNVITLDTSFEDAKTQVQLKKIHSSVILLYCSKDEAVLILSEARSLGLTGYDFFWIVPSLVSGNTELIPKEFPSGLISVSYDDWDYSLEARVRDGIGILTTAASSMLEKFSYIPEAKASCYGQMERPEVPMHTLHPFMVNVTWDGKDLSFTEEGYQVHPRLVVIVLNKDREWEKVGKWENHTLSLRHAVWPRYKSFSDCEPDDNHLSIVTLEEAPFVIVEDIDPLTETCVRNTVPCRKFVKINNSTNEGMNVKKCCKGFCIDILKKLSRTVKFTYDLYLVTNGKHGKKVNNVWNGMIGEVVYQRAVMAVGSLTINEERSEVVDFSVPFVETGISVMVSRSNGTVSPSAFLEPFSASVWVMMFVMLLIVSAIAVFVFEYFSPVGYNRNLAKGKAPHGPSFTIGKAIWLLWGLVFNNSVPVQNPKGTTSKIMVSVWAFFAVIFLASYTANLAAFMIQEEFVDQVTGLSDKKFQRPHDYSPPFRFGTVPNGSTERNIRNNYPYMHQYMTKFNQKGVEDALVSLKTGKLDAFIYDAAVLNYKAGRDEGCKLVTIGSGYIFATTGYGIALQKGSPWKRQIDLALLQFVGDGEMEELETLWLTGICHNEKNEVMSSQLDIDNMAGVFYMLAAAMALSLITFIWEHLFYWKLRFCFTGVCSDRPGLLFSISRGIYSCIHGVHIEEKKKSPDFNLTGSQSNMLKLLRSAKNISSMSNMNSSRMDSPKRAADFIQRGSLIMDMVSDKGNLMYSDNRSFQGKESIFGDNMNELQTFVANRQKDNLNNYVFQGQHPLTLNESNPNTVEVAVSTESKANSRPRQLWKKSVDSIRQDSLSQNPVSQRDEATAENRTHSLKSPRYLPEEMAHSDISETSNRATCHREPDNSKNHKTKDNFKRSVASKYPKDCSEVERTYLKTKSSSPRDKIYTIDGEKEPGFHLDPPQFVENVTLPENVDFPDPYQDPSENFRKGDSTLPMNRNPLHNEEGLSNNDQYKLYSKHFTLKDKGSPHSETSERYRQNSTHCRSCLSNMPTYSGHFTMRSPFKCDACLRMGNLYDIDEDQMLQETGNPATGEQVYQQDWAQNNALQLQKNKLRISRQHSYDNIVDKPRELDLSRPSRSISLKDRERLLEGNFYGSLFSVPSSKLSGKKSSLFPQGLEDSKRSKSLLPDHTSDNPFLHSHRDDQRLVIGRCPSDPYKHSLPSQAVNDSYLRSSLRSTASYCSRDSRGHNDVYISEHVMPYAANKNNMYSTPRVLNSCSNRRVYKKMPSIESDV
test_description: Whole-cell patch clamp of mammalian cells (Syncropatch 384i), NMDA modulation
Format: cell-based
conditions: Table B-2; HEK293 cells, human GluN1/GluN2A; glutamate 1 μM / glycine 100 μM; -80 mV; peak amplitude increase

- smiles_notation: "CC[C@]1(O)CC[C@@]2(C)[C@@H](CC[C@H]3[C@@H]4[C@H](C5CC5)C[C@H]([C@H](C)CCCC(C)(C)O)[C@@]4(C)CC[C@@H]32)C1"
  Emax: "100 to 200%"
- smiles_notation: "CC[C@]1(O)CC[C@@]2(C)[C@@H](CC[C@@H]3[C@@H]2CC[C@]2(C)[C@@H]([C@H](C)CCCC(C)(C)O)[C@H](C)C[C@@H]32)C1"
  Emax: "> 200%"
- smiles_notation: "CC[C@]1(O)CC[C@@]2(C)[C@@H](CC[C@H]3[C@@H]4[C@@H]5C[C@@H]5[C@H]([C@H](C)CC[C@@](C)(O)C(F)(F)F)[C@@]4(C)CC[C@@H]32)C1"
  Emax: "> 200%"
- smiles_notation: "CC[C@]1(O)CC[C@@]2(C)[C@@H](CC[C@@H]3[C@@H]2CC[C@]2(C)[C@@H]([C@H](C)CC[C@@H](O)C(C)C)[C@H](C)C[C@@H]32)C1"
  Emax: "> 200%"
- smiles_notation: "CC[C@]1(O)CC[C@@]2(C)[C@@H](CC[C@H]3[C@@H]4[C@@H](C)C[C@H]([C@H](C)CC[C@@](C)(O)C(F)(F)F)[C@@]4(C)CC[C@@H]32)C1"
  Emax: "> 200%"
- smiles_notation: "CC[C@]1(O)CC[C@@]2(C)[C@@H](CC[C@H]3[C@@H]4[C@H](C)C[C@H]([C@H](C)CCCC(C)(C)O)[C@@]4(C)CC[C@@H]32)C1"
  Emax: "100 to 200%"
- smiles_notation: "CC[C@]1(O)CC[C@@]2(C)[C@@H](CC[C@@H]3[C@@H]2CC[C@@]2(C)[C@H]3C[C@H]3C[C@]32[C@H](C)CC[C@@](C)(O)C(F)(F)F)C1"
  Emax: "100 to 200%"
- smiles_notation: "CC[C@]1(O)CC[C@@]2(C)[C@@H](CC[C@H]3[C@@H]4[C@@H](C)C[C@H]([C@H](C)CC[C@](C)(O)C(F)(F)F)[C@@]4(C)CC[C@@H]32)C1"
  Emax: "> 200%"
- smiles_notation: "CC[C@]1(O)CC[C@@]2(C)[C@@H](CC[C@H]3[C@@H]4[C@@H]5C[C@@H]5[C@H]([C@H](C)CCCC(C)(C)O)[C@@]4(C)CC[C@@H]32)C1"
  Emax: "> 200%"
- smiles_notation: "CC[C@]1(O)CC[C@@]2(C)[C@@H](CC[C@@H]3[C@@H]2CC[C@]2(C)[C@@H]([C@H](C)CC[C@H](O)C(C)C)[C@H](C)C[C@@H]32)C1"
  Emax: "> 200%"
- smiles_notation: "CC[C@]1(O)CC[C@@]2(C)[C@@H](CC[C@@H]3[C@@H]2CC[C@@]2(C)[C@H]3C[C@H]3C[C@]32[C@H](C)CC[C@](C)(O)C(F)(F)F)C1"
  Emax: "100 to 200%"
- smiles_notation: "CC[C@]1(O)CC[C@@]2(C)[C@@H](CC[C@@H]3[C@@H]2CC[C@@]2(C)[C@H]3C[C@H]3C[C@]32[C@H](C)CCCC(C)(C)O)C1"
  Emax: "100 to 200%"
- smiles_notation: "CC[C@]1(O)CC[C@@]2(C)[C@@H](CC[C@H]3[C@@H]4[C@H]5C[C@H]5[C@H]([C@H](C)CC[C@@](C)(O)C(F)(F)F)[C@@]4(C)CC[C@@H]32)C1"
  Emax: "100 to 200%"
- smiles_notation: "CC[C@]1(O)CC[C@@]2(C)[C@@H](CC[C@H]3[C@@H]4[C@H]5C[C@H]5[C@H]([C@H](C)CC[C@](C)(O)C(F)(F)F)[C@@]4(C)CC[C@@H]32)C1"
  Emax: "> 200%"
- smiles_notation: "CC[C@]1(O)CC[C@@]2(C)C(=CC[C@H]3[C@@H]4[C@@H]5C[C@@H]5[C@H]([C@H](C)CCCC(C)(C)O)[C@@]4(C)CC[C@@H]32)C1"
  Emax: "100 to 200%"
- smiles_notation: "CC[C@]1(O)CC[C@@]2(C)[C@@H](CC[C@H]3[C@@H]4[C@@H](C)C[C@H]([C@H](C)CCCC(C)(C)O)[C@@]4(C)CC[C@@H]32)C1"
  Emax: "100 to 200%"
- smiles_notation: "CC[C@]1(O)CC[C@@]2(C)[C@@H](CC[C@H]3[C@@H]4[C@H]5C[C@H]5[C@H]([C@H](C)CCCC(C)(C)O)[C@@]4(C)CC[C@@H]32)C1"
  Emax: "> 200%"
- smiles_notation: "CC[C@]1(O)CC[C@@]2(C)[C@@H](CC[C@H]3[C@@H]4[C@H]5C[C@H]5[C@H]([C@H](C)CCC(C)(C)O)[C@@]4(C)CC[C@@H]32)C1"
  Emax: "> 200%"
- smiles_notation: "CC[C@]1(O)CC[C@@]2(C)[C@@H](CC[C@H]3[C@@H]4[C@@H]5C[C@@H]5[C@H]([C@H](C)CC[C@](C)(O)C(F)(F)F)[C@@]4(C)CC[C@@H]32)C1"
  Emax: "> 200%"
